# target under test: Gal(a1-3)Gal(b1-3)[Fuc(a1-4)]GlcNAc(b1-2)Man(a1-3)[Gal(a1-3)Gal(b1-3)[Fuc(a1-4)]GlcNAc(b1-2)Man(a1-6)]Man(b1-4)GlcNAc(b1-4)GlcNAc
# measurement description: glycan array binding signal (z-score within array); higher = stronger binding
# experimental context: glycan notation: IUPAC condensed, linker removed
Many of the other results were omitted from the sample, so the strongest signals are more common in it than they were.
measurement label: glycan array binding signal (z-score)

binder: HPL (Tachypleus tridentatus) (protein) MEDDCTCVTDRSLEGKLMKHPSTPAVYQILDGCRRLVPNPPTYNNIYKNWECIQSNILEKLLCKCDSLSNGAELIKGSGDTVYLLSNGVKRPIADPETFNGFCFDWNKIKTYSDIVINSLSTGPIIIIKHHHHHH
reported result: 2.31
//
binder: Erv41-EDTA (Saccharomyces cerevisiae), Q04651 (protein) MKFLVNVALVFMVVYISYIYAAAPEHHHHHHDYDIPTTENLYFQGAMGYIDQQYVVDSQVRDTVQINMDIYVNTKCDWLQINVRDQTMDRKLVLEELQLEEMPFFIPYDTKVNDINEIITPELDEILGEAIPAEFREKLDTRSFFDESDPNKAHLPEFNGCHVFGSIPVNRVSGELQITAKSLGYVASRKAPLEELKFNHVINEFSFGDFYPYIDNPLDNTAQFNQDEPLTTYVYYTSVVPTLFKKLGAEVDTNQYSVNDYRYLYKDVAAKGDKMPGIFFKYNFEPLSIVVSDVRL
reported result: -0.414
//
binder: KISKRILTGKK [NK11 (Sus scrofa)]
reported result: -0.06
//
binder: AT5G01260(PC)(40) (Arabidopsis thaliana), Q9LFB0 (protein) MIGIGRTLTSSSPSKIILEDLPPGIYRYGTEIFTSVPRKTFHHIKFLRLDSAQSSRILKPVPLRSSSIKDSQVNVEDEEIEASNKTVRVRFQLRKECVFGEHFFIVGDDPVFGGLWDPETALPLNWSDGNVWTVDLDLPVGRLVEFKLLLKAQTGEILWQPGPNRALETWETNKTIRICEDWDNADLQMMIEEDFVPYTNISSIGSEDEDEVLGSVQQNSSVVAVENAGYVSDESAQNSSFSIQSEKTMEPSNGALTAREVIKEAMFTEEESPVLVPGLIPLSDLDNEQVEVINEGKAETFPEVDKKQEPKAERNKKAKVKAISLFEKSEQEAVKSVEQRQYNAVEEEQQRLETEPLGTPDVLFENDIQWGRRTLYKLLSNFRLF
reported result: 0.054
//
binder: Arath Fbox LD (Arabidopsis thaliana) (protein) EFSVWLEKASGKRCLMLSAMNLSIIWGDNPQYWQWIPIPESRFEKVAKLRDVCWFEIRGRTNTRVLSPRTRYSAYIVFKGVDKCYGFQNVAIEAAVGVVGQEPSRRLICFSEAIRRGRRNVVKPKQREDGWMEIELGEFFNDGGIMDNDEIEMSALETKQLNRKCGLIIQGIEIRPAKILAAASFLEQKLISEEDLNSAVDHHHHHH
reported result: 2.84
//
binder: Sebin1 (Coprinopsis cinerea), A8PEE3 (protein) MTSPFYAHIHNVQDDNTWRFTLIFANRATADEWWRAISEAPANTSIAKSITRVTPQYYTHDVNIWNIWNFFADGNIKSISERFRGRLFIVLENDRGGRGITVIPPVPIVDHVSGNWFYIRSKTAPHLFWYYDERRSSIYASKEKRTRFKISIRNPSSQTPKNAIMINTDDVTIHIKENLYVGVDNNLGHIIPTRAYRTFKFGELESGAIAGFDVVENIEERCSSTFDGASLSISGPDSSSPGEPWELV
reported result: 2.45
//
binder: Mincle (Bos taurus) (protein) MNSSTSPASQTERRCFSFQLFSWAIAGTSILLLSACFITRCVVTYSIFQLCDEKKFQPPGDSMELSCYNDGSGSVKNCCPLKWFHFQSSCYLFSPDTMSWRASLKNCSSMGAHLVVINTQEEQEFLYYTKPRKKEFYIGLTDQVTEGQWQWVDGTPFTKSLSFWDAGEPNNLVIVEDCATIRDSSNPRQNWNDVPCFFNMFRVCEMPERKI
reported result: 1.26
//
binder: ArathEULS3 (Arabidopsis thaliana), Q945P1 (protein) MEHHHQHHRHHQRDDGEDDRQSFGVPPPHVDAPPQPHGLYQSQPHFDPYAPTPQAPAPYRSETQFEPHAPPPYRSEPYFETPAPPPSFGHVSHVGHQSPNESYPPEHHRYGGYQQPSNSLLESHGDHSGVTHVAHHSSNQPQSSSGVYHKPDENRLPDNLAGLAGRATVKVYSKAEPNYNLTIRDGKVILAPADPSDEAQHWYKDEKYSTKVKDADGHPCFALVNKATGEAMKHSVGATHPVHLIRYVPDKLDESVLWTESKDFGDGYRTIRMVNNTRLNVDAYHGDSKSGGVRDGTTIVLWDWNKGDNQLWKIFPFILEQKLISEEDLNSAVDHHHHHH
reported result: 0.898
//
binder: Arath Fbox (Arabidopsis thaliana), NP_178341.1 (protein) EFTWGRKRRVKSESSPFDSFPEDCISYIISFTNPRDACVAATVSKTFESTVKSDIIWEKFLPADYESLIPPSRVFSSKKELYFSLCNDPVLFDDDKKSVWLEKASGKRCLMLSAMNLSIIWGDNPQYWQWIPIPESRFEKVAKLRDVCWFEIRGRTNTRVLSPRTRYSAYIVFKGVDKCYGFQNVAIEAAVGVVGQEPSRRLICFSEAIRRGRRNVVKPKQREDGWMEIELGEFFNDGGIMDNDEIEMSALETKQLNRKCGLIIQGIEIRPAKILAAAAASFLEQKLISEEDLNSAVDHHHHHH
reported result: 3.32
//
binder: TIM1 (protein) ADGIQSVKVGGEAGPSVTLPCHYSGAVTSMCWNRGSCSLFTCQNGIVWTNGTHVTYRKDTRYKLLGDLSRRDVSLTIENTAVSDSGVYCCRVEHRGWFNDMKITVSLEIVPPHHHHHH
reported result: 0.01
//
binder: Tectonin 2 (Laccaria bicolor) (protein) MPWKGISGSLSRISAGSVTNVWGVNAANNIYRYTGDDAKPWVQIPGALTDIGAAADGTVWGVNAAGNIYRYVWDSNHWTQIKGALKRISAGSRTNVWGVNAGGAIYRYTGDDANPWVQIPGVLSDIGAGADGTVWGVNAAGEIYRYTGDQGDPNHWVKIPGALSAISAGIKTNVWGVNSANNIYTSTGDDKNPWLGIGGSLVDIGAGTDGVVWGVNAGGGIYRWIRD
reported result: -0.008
